Consider the following compounds; for each one, report its mass density.
Details: 303.15 K; 100 kPa; Liquid; Vibrating tube method
Give bare numbers, in kg/m3.

For orientation, consider the following solved cases.
[[record]]
compound = "CCCCCCO [hexan-1-ol]"
quantity_unit = "kg/m3"
observed_value = 811.5

[[record]]
compound = "CCCCCO [pentan-1-ol]"
quantity_unit = "kg/m3"
observed_value = 807.1

[[record]]
compound = "O=C1CCCCC1 [cyclohexanone]"
quantity_unit = "kg/m3"
observed_value = 938.2


# map each compound to its mass density
1. CCCCCCCCCO [nonan-1-ol]
2. CCCCCCCO [heptan-1-ol]
3. CCCCCCCCO [octan-1-ol]
4. CCCCCCCCCCO [decan-1-ol]

Result:
[820.5, 815.2, 817.9, 822.7]
